Source listed as paper PMC5729429.

Test system: HGC27 cells
Experiment: Cell viability assay (CCK-8), HGC27
Type: cell-based
Conditions: Homo sapiens, HGC-27, Fig. S1A 48 h exposure, 0–1 µM, read-out: IC50 antiproliferative effect
Where a name gives a salt, the structure may show the parent alone.
readout label: IC50 (nM)
One number for each entry, in nM.

CC[C@@]1(O)C(=O)OCc2c1cc1n(c2=O)Cc2c-1nc1ccccc1c2/C=N/OC(C)(C)C [Gimatecan, 7-t-butoxyiminomethylcamptothecin] ... 1.63

Challenge: Entry CCc1c2c(nc3ccc(OC(=O)N4CCC(N5CCCCC5)CC4)cc13)-c1cc3c(c(=O)n1C2)COC(=O)[C@]3(O)CC [Irinotecan, irinotecan hydrochloride] has what IC50?
Response given: 152
